test system: CDK4-cyclinD1; details: concentration: 1 μM, replicates: in singlicate; n = 1;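 further: KINOMEscan kinase panel screen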
Observable: %Inh (%)
Please state the figure in %; there is no need to write the unit.

Item `Cl.c1ccc(-c2ccc3c(Nc4ccc5[nH]ncc5c4)ccnc3c2)nc1` was tested on CDK4-cyclinD1; the reported %Inh is 0

Item `O=C(Nc1cccc(-c2nn3ncccc3c2-c2ccnc(Nc3ccccc3)n2)c1)c1c(F)cccc1F` was tested on CDK4-cyclinD1; the reported %Inh is 0

Item `CCn1c(-c2nonc2N)nc2c(C#CC(C)(C)O)nc(OC[C@H](N)c3ccccc3)cc21` was tested on CDK4-cyclinD1; the reported %Inh is 0

Item `CNC(=O)c1ccccc1Nc1nc(Nc2ccc(N3CCOCC3)cc2)ncc1Cl.Cl` was tested on CDK4-cyclinD1; the reported %Inh is 47

Item Cl.Cl.NCC(C(=O)Nc1cc(Br)c(-c2ccnc3[nH]ccc23)s1)c1ccccc1 (stereo not shown) was tested on CDK4-cyclinD1; the reported %Inh is 0

Item `Cn1cc(-c2ccc3c(c2)CCN3C(=O)Cc2cccc(F)c2)c2c(N)ncnc21` was tested on CDK4-cyclinD1; the reported %Inh is 2

Item `Nc1ncc(-c2ccc3nccc(-c4ccncc4)c3c2)cc1S(=O)(=O)N1CCOCC1` was tested on CDK4-cyclinD1; the reported %Inh is 0

Item Cc1ccc(C)c(NC(=O)NC2CCN(c3ccnc(Nc4ccc(F)cc4)n3)C2)c1 (stereo not shown) was tested on CDK4-cyclinD1; the reported %Inh is 37

Item COc1cc(Nc2nccc(N3CCC(NC(=O)c4cc5ccccc5s4)C3)n2)cc(OC)c1OC (stereo not shown) was tested on CDK4-cyclinD1; the reported %Inh is 41

Item `COC(=O)Nc1nc2cc(Oc3ccc(NC(=O)Nc4cc(C(F)(F)F)ccc4F)cn3)ccc2[nH]1.Cl.Cl` was tested on CDK4-cyclinD1; the reported %Inh is 7

* * *

system: ERBB4; settings: concentration: 1 μM, replicates: in singlicate; n = 1
Observable: %Inh (%)
Please state the figure in %; there is no need to write the unit.

Record `COc1cc(Nc2nccc(-c3c(-c4cccc(NC(=O)c5c(F)cccc5F)c4)nn4ncccc34)n2)cc(OC)c1OC` , field %Inh: 99.4

Record `COC(=O)Nc1nc2ccc(Oc3ccc(NC(=O)Nc4cc(C(F)(F)F)ccc4F)cc3)cc2n1C.Cl` , field %Inh: 4

Record COc1cccc(NC(=O)NC2CCN(c3ccnc(Nc4cc(OC)c(OC)c(OC)c4)n3)C2)c1 (stereo not drawn) , field %Inh: 30

Record `Cn1cc(-c2[nH]c3cc(NC(=O)[C@H](N)C4CCCCC4)cc4c3c2C=NNC4=O)cn1` , field %Inh: 36

Record `O=C(Nc1cccc(Oc2ccc3nc(NC(=O)C4CC4)cn3n2)c1)c1ccccc1C(F)(F)F` , field %Inh: 20

Record `CCc1ccc(-c2ccc3c(c2)-c2c(cnn2C)S(=O)(=O)N3C)cc1` , field %Inh: 4

Record `Cc1ccc(C(=O)Nc2ccc(Nc3ccnc4cc(-c5nccs5)ccc34)cc2O)cc1.Cl` , field %Inh: 10

Record Cc1ccc(C)c(NC(=O)NC2CCN(c3ccnc(Nc4ccc(F)cc4)n3)C2)c1 (stereo not drawn) , field %Inh: 47

Record `CN(C)S(=O)(=O)c1cc(-c2ccc3nccc(-c4cccc(S(N)(=O)=O)c4)c3c2)cnc1N` , field %Inh: 0

Record `CN(c1ccc(NC(=O)Nc2cc(C(F)(F)F)ccc2F)cc1)c1ccnc(Nc2ccc(S(N)(=O)=O)cc2)n1` , field %Inh: 0

Record `Cc1cccc(NC(=O)Nc2ccc(Oc3ncnc4ccn(C)c34)cc2)c1` , field %Inh: 12

Record `COC(=O)Nc1nc2cc(Oc3ccc(NC(=O)Nc4cc(C(F)(F)F)ccc4F)cn3)ccc2[nH]1.Cl.Cl` , field %Inh: 2

Record `c1ccc(Oc2ccc(Nc3ccnc4cc(-c5ccc(CNCCN6CCOCC6)o5)ccc34)cc2)nc1` , field %Inh: 7

Record Cl.Cl.NCC(NCc1ccc(-c2ccnc3[nH]ccc23)s1)c1ccccc1 (stereo not drawn) , field %Inh: 11

Record `COc1cc(Nc2nccc(-c3c(-c4cccc(NC(=O)c5c(F)cccc5F)c4)nn4ccccc34)n2)cc(OC)c1OC` , field %Inh: 12

Record `Fc1ccc(-c2ncn(C3CCNCC3)c2-c2ccnc(Oc3ccc(-c4ccccc4)cc3)n2)cc1` , field %Inh: 6

Record `COc1cccc(C2=C(Nc3ccc(Cl)c(C(=O)O)c3)C(=O)NC2=O)c1` , field %Inh: 0

Record `CC(=O)Nc1nc2cnc(Nc3cc(NC(=O)c4cccc(C5(C#N)CC5)c4Cl)ccc3C)nc2s1` , field %Inh: 4

Record `COc1cccc(-c2ccc3c(NC(=O)C4CC4)n[nH]c3n2)c1` , field %Inh: 36

Record `COc1cccc(C(=O)Nc2cccc(Oc3ccc4nc(NC(=O)C5CC5)cn4n3)c2)c1` , field %Inh: 6

Record `Nc1n[nH]c2cnc(-c3ccccc3)cc12` , field %Inh: 24

* * *

test system: PKN2; conditions: concentration: 1 μM, replicates: in singlicate; n = 1
Hi there, I'd appreciate the recorded %Inh for every entry that follows.
Quick note: number first, unit second.

Record `COc1cccc(C(=O)Nc2cccc(Oc3ccc4nc(NC(=O)C5CC5)cn4n3)c2)c1` , field %Inh: 4%

Record `O=C(Nc1cccc(-c2nn3ccccc3c2-c2ccnc(Nc3cccc(C(F)(F)F)c3)n2)c1)c1c(F)cccc1F` , field %Inh: 0%

Record `CNC(=O)c1ccccc1Nc1nc(Nc2ccc(N3CCOCC3)cc2)ncc1Cl.Cl` , field %Inh: 52%

Record `Cc1ccc(C(=O)Nc2ccc(Nc3ccnc4cc(-c5nccs5)ccc34)cc2O)cc1.Cl` , field %Inh: 0%

* * *

Hi there, I'd appreciate the recorded %Inh for every entry that follows.
tested on: IKK-epsilon; construct: gene IKBKE; details: concentration: 1 μM, replicates: in singlicate; n = 1
Please state the figure in %; there is no need to write the unit.

Record `c1ccc(-c2cnc3nccnn23)cc1` , field %Inh: 5

Record `COc1cc(Nc2ncc3c(C)nc(-c4cc5ccccc5[nH]4)n3n2)cc(OC)c1OC` , field %Inh: 0

Record `c1ccc(-c2n[nH]cc2Nc2ccnc3ccccc23)nc1` , field %Inh: 0

Record `Cc1ccc(C(=O)Nc2ccc(Nc3ccnc4cc(-c5nccs5)ccc34)cc2O)cc1.Cl` , field %Inh: 0

* * *

tested on: BRSK2; conditions: concentration: 1 μM, replicates: in singlicate; n = 1
Observable: %Inh (%)
Please state the figure in %; there is no need to write the unit.

Record NCCCC(NC(=O)c1cc(Br)c(-c2ccnc3[nH]ccc23)s1)c1ccccc1.O=C(O)C(F)(F)F.O=C(O)C(F)(F)F (centres unmarked) , field %Inh: 0

Record `COc1cc(Nc2ncc3c(C)nc(-c4cc5ccccc5[nH]4)n3n2)cc(OC)c1OC` , field %Inh: 14

Record `O=C(Nc1cccc(-c2nn3ccccc3c2-c2ccnc(Nc3cccc(C(F)(F)F)c3)n2)c1)c1c(F)cccc1F` , field %Inh: 0

Record `CNC(=O)c1ccccc1Nc1nc(Nc2ccc(N3CCOCC3)cc2)ncc1Cl.Cl` , field %Inh: 92.4

Record `Clc1ccc(-c2nn3ncccc3c2-c2ccnc(Nc3ccc4c(c3)OCCO4)n2)cc1` , field %Inh: 0

* * *

system: CSNK1E; details: concentration: 1 μM, replicates: in singlicate; n = 1
Entries whose %Inh is below 20% take YES; entries at or above 20% take NO.

Asked: Strictly below 20%: is that where %Inh of COc1cc(Nc2nccc(N3CCC(NC(=O)Nc4cccc(C(C)=O)c4)C3)n2)cc(OC)c1OC (centres unmarked) [GSK1379753] sits?
Given back: YES

Asked: Strictly below 20%: is that where %Inh of COc1cccc(C2=C(Nc3ccc(Cl)c(C(=O)O)c3)C(=O)NC2=O)c1 [SB-390769] sits?
Given back: YES

Asked: Strictly below 20%: is that where %Inh of `COc1cccc(C(=O)Nc2cccc(Oc3ccc4nc(NC(=O)C5CC5)cn4n3)c2)c1` sits?
Given back: YES

Asked: Strictly below 20%: is that where %Inh of COc1cc(Nc2nccc(N3CCC(NC(=O)c4cc5ccccc5s4)C3)n2)cc(OC)c1OC (centres unmarked) [GSK1379760] sits?
Given back: YES

Asked: Strictly below 20%: is that where %Inh of CN(C)Cc1ccc(-c2ccc3c(Nc4ccc(Oc5ccccn5)cc4)ccnc3c2)o1 [GW567148] sits?
Given back: NO

* * *

system: FGFR4; settings: concentration: 1 μM, replicates: in singlicate; n = 1
Observable: %Inh (%)
Please state the figure in %; there is no need to write the unit.

Record `c1ccc(-c2cnc3nccnn23)cc1` , field %Inh: 0

Record `O=C(Nc1cccc(-c2nn3ccccc3c2-c2ccnc(Nc3cccc(F)c3)n2)c1)c1c(F)ccc(F)c1Cl` , field %Inh: 0

Record `O=C(Nc1n[nH]c2cc(-c3ccoc3)ccc12)C1CC1` , field %Inh: 0

Record Cl.Cl.NCC(C(=O)Nc1cc(Br)c(-c2ccnc3[nH]ccc23)s1)c1ccccc1 (centres unmarked) , field %Inh: 44

Record `FC(F)(F)c1ccc(/C=C/c2cncnc2Nc2ccc3[nH]c(Cc4ccccc4)nc3c2)cc1` , field %Inh: 4

Record `CCn1c(-c2nonc2N)nc2c(C#CC(C)(C)O)nc(OC[C@H](N)c3ccccc3)cc21` , field %Inh: 0

Record `Cn1cc(-c2[nH]c3cc(NC(=O)[C@H](N)C4CCCCC4)cc4c3c2C=NNC4=O)cn1` , field %Inh: 97.3

Record `CC(=O)N1CCN(c2ccc(Nc3nccc(-c4sc(C(C)C)nc4-c4cccc(NS(=O)(=O)c5cccc(Cl)c5)c4)n3)cn2)CC1` , field %Inh: 0

Record `CC(C)c1nc(-c2cccc(NS(=O)(=O)c3c(F)cccc3F)c2F)c(-c2ccnc(Nc3ccc(N4CCOCC4)nc3)n2)s1` , field %Inh: 48

Record `COCCOCCOc1cc2ncc3c4ccc(C#N)cc4[nH]c3c2cc1OC` , field %Inh: 4

Record `COC(=O)Nc1nc2ccc(Oc3ccc(NC(=O)Nc4cc(C(F)(F)F)ccc4F)cc3)cc2n1C.Cl` , field %Inh: 0

Record `Cc1cccc(NC(=O)Nc2ccc(Oc3ncnc4ccn(C)c34)cc2)c1` , field %Inh: 0

Record Cl.Cl.NCC(NCc1ccc(-c2ccnc3[nH]ccc23)s1)c1ccccc1 (centres unmarked) , field %Inh: 1

Record `COC(=O)Nc1nc2cc(Oc3ccc(NC(=O)Nc4cc(C(F)(F)F)ccc4F)cn3)ccc2[nH]1.Cl.Cl` , field %Inh: 3

Record COc1cc(Nc2nccc(N3CCC(NC(=O)c4cc5ccccc5s4)C3)n2)cc(OC)c1OC (centres unmarked) , field %Inh: 0

Record `Fc1ccc(-c2ncn(C3CCNCC3)c2-c2ccnc(Oc3ccc(-c4ccccc4)cc3)n2)cc1` , field %Inh: 59

Record `O=C(Nc1n[nH]c2nc(-c3ccc(O)cc3)ccc12)C1CC1` , field %Inh: 0
